The reported numbers originate from patent US20110054149A1.

assayed.target: T1, GST-human NOGO-A56 (human, UniProt Q9NQC3 586-785)
T1 construct: also called hNOGO; recombinant human NOGO; not shown: Glutathione S-transferase (GST) tag encoded by vector pGEX-6P1, N-terminal to the NOGO-A fragment; the tag and linker se
T1 sequence: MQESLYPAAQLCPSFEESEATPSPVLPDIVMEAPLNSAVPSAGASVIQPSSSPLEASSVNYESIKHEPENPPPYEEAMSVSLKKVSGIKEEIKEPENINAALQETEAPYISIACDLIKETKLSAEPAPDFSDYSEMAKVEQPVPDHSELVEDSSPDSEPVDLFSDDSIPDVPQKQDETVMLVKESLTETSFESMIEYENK
experimental.details: SPR (Biacore 3000), GST-human NOGO-A56 on CM5 chip, antibody as analyte; single experiment
quantity.kind: koff (s⁻¹)
Give just the number in s⁻¹; leave the unit off.

### Prompt State the recorded koff for this entry: H6L6 (antibody, human IgG1, kappa, V domains shown, Humanised 2A10; human gamma-1 mutated constant region, human kappa) VH: QVQLVQSGAEVKKPGASVKVSCKASGYTFTSYWMHWVRQAPGQGLEWIGNINPSNGGTNYNEKFKSRATMTRDTSTSTAYMELSSLRSEDTAVYYCELGQGYWGQGTLVTVSS VL: DIVMTQSPLSLPVTPGEPASISCRSSKSLLYKDGKTYLNWFLQRPGQSPQLLIYLMSTRASGVPDRFSGSGSGTDFTLKISRVEAEDVGVYYCQQLVEYPLTFGGGTKVEIKR
### Response 0.0254
